The reported numbers originate from ChEMBL document CHEMBL3751799.

- system_under_test: 72 kDa type IV collagenase (Homo sapiens)
- Sequence (P08253 whole entry): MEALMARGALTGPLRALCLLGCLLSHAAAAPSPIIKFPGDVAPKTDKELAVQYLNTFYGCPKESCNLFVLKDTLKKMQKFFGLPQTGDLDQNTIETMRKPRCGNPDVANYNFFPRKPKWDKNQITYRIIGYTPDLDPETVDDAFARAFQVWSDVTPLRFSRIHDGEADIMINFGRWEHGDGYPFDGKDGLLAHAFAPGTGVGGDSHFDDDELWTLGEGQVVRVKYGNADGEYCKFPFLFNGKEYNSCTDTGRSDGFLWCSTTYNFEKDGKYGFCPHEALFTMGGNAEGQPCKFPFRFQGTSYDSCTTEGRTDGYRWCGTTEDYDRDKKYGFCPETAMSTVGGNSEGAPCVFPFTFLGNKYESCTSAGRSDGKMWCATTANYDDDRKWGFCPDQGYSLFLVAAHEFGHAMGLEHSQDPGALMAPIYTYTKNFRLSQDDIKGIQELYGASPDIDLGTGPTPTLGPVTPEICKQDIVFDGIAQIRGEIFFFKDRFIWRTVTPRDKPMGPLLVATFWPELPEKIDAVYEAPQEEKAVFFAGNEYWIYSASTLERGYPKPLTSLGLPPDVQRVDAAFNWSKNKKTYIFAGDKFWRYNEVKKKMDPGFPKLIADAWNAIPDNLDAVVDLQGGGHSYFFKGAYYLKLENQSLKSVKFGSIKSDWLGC
pIC50: −log10 of the molar value.
quantity_name: pIC50

Qu. Requested read-out: pIC50. Entry: Cc1ccc(-c2ccc(S(=O)(=O)NC(C(C)C)P(=O)(O)O)cc2)s1 (stereo unspecified)
Ans. < 4.00

* * *

- system_under_test: Neutrophil collagenase (Homo sapiens, UniProt P22894)
- Sequence (P22894 whole entry): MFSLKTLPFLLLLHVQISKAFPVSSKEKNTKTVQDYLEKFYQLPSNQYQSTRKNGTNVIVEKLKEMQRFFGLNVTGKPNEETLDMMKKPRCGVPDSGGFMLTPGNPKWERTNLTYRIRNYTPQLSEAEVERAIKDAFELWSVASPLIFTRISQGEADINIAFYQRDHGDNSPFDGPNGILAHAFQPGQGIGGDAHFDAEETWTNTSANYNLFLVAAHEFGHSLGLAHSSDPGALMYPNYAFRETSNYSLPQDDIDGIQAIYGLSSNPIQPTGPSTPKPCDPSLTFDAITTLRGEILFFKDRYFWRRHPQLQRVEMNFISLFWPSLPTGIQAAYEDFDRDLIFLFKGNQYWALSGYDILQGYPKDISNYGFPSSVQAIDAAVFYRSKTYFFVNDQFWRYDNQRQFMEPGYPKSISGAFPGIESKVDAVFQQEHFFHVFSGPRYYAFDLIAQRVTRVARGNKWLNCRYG
- assay_details: Inhibition of MMP8 (unknown origin) using (7-methoxycoumarin-4-yl) acetyl pro-Leu-Gly-Leu-[3-(2,4-dinitrophenyl)-L-2,3-diamino-propionyl]-Ala-Arg-NH2 as substrate preincubated for 30 mins followed by substrate addition by microplate reader analysis
pIC50: −log10 of the molar value.
quantity_name: pIC50

a = CC(C)C(N(Cc1ccccc1)S(=O)(=O)c1ccc(-c2ccc(OCCF)cc2)cc1)P(=O)(O)O (stereo not given)
b = COc1ccc(-c2ccc(S(=O)(=O)N[C@H](CCCCCF)P(=O)(O)O)cc2)cc1
Qu. Returns: the label, a or b , whose recorded pIC50 is the lower number. Label of pick, please.
Ans. a
(a: 7.08, b: 7.37)
